- Tested On: monoclonal antibody 4C3 (anti-Bla g 2)
- Sequence (chain, as listed by the source, chain 1 of 2): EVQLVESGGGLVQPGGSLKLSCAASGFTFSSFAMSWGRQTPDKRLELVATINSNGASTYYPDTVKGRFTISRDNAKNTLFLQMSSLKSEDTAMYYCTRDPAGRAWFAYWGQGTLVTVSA
- Sequence (chain, as listed by the source, chain 2 of 2): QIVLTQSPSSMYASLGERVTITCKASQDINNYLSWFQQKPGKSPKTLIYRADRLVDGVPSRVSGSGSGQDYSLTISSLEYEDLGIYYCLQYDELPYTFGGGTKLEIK
- Assay Name: ELISA dose-response
- Conditions: chain shown with the change; allergen concentration 100 ng/ml; parent: est. 1.5; read off a plot
Observation Type: response (Absorbance (405 nm))

- Binder: "recombinant Bla g 2-N93Q E233A (protein) VPLYKLVHVFINTQYAGITKIGNQNFLTVFDSTSCNVVVASQECVGGACVCPNLQKYEKLKPKYISDGNVQVKFFDTGSAVGRGIEDSLTISQLTTSQQDIVLADELSQEVCILSADVVVGIAAPGCPNALKGKTVLENFVEENLIAPVFSIHHARFQDGEHFGEIIFGGSDWKYVDGEFTYVPLVGDDSWKFRLDGVKIGDTTVAPAGTQAIIDTSKAIIVGPKAYVNPINAAIGCVVEKTTTRRICKLDCSKIPSLPDVTFVINGRNFNISSQYYIQQNGNLCYSGFQPCGHSDHFFIGDFFVDHYYSEFNWENKTMGFGRSVESV"
  Observation Type: "response (Absorbance (405 nm))"
  Result: 1
